This section presents molecules with their documented IC50 values.
target: human phosphodiesterase 5 (PDE 5) (Homo sapiens (Human), UniProt O76074)
A number alone suffices; assume nM.

Look over these answered cases.
O=C1Nc2nc(-c3nn(Cc4ccccc4F)c4ncc(F)cc34)nnc2C12CCCC2
2000
Cc1nc2c(cc1F)c(-c1ncc3c(n1)NC(=O)C3(C)C)nn2Cc1ccccc1F
920
CC(C)n1ccc(-c2nc(-c3nn(Cc4ccccc4F)c4ncccc34)nc3c2C(C)(C)C(=O)N3)n1
240
CCOc1ccc(-c2nc(-c3nn(Cc4ccccc4F)c4ncccc34)nc3c2C(C)(C)C(=O)N3)cn1
2000
CC1(C)C(=O)Nc2nc(-c3nn(Cc4ccccc4F)c4nc(C(F)(F)F)ccc34)nnc21
38
CC1(C)C(=O)Nc2nc(-c3nn(Cc4ccccc4F)c4ncc(F)cc34)nc(CN)c21.O=CO [Example 44, formate]
870

Notebook: pull reported IC50 for human phosphodiesterase 5 (PDE 5) (Homo sapiens (Human), UniProt O76074), entry `CC(C)Cc1nc(-c2nn(Cc3ccccc3F)c3ncccc23)nc2c1C(C)(C)C(=O)N2` 420

Notebook: pull reported IC50 for human phosphodiesterase 5 (PDE 5) (Homo sapiens (Human), UniProt O76074), entry `COc1cccc(Cn2nc(-c3nnc4c(n3)NC(=O)C4(C)C)c3cc(F)cnc32)c1F` 250

Notebook: pull reported IC50 for human phosphodiesterase 5 (PDE 5) (Homo sapiens (Human), UniProt O76074), entry `CC1(C)C(=O)Nc2nc(-c3nn(Cc4ccccc4F)c4ncccc34)nc(C#CC3CC3)c21` 410

Notebook: pull reported IC50 for human phosphodiesterase 5 (PDE 5) (Homo sapiens (Human), UniProt O76074), entry CCC1(C)C(=O)Nc2nc(-c3nn(Cc4ccccc4F)c4ncc(F)cc34)nnc21 (single isomer, unassigned) [Example 7-2] 350

Notebook: pull reported IC50 for human phosphodiesterase 5 (PDE 5) (Homo sapiens (Human), UniProt O76074), entry NC1(C(F)(F)C(F)(F)F)C(=O)Nc2nc(-c3nn(Cc4ccccc4F)c4ncccc34)ncc21 (stereo not shown) 1300

Notebook: pull reported IC50 for human phosphodiesterase 5 (PDE 5) (Homo sapiens (Human), UniProt O76074), entry CC1(CC2CC2)C(=O)Nc2nc(-c3nn(Cc4ccccc4F)c4ncc(F)cc34)nnc21 (racemic) 260

Notebook: pull reported IC50 for human phosphodiesterase 5 (PDE 5) (Homo sapiens (Human), UniProt O76074), entry `Cn1nc(C(F)(F)F)cc1-c1nc(-c2nn(Cc3ccccc3F)c3ncccc23)nc2c1C(C)(C)C(=O)N2` 1600
